Where these numbers come from: paper PMC7394005

- Target System: human LXRβ (Homo sapiens, UniProt P55055)
- Construct: LXRβ (G199-E461); expressed in transfected cells; host or cells: HG5LN (HeLa cells carrying the (GAL4RE)5-βGlob-Luc-SVNeo reporter)
- Assay Name: HG5LN GAL4-LXRβ reporter cell line, agonist mode
- Type: cell-based
Value Type: EC50 (nM)
All answers are understood in nM, so give the number only.

Record Fc1ccc(-c2c3cccc(C(F)(F)F)c3nn2Cc2ccc(F)cc2Cl)cc1 , field EC50: 321

###

- Target System: human LXRβ (Homo sapiens)
- Construct: LXRβ (G199-E461); expressed in transfected cells; host or cells: HG5LN (HeLa cells carrying the (GAL4RE)5-βGlob-Luc-SVNeo reporter)
- Assay Name: HG5LN GAL4-LXRβ reporter cell line, antagonist mode in presence of T0901317
- Type: cell-based
Value Type: pIC50
# pIC50 = -log10(concentration in molar units)

Field pIC50 (entry CCOC(=O)c1ccc(CN(Cc2ccc(-c3cccc(S(C)(=O)=O)c3)cc2)S(=O)(=O)c2c(C)cc(C)cc2C)o1 ) reads 8.30

Lab note: Cc1cc(C)c(S(=O)(=O)N(CCc2cccc(Br)c2)Cc2ccc(-c3cccc(S(C)(=O)=O)c3)cc2)c(C)c1 gave pIC50 of 7.23

Entry Cc1cc(C)c(S(=O)(=O)N(Cc2ccc(-c3cccc(S(C)(=O)=O)c3)cc2)Cc2ccc(C(F)(F)F)o2)c(C)c1 — recorded pIC50 = 8.00

###

- Target System: human CAR WT (Homo sapiens, UniProt Q14994)
- Construct: CAR (M76-S348)
- Sequence (Q14994 76-348 isoform Q14994-2): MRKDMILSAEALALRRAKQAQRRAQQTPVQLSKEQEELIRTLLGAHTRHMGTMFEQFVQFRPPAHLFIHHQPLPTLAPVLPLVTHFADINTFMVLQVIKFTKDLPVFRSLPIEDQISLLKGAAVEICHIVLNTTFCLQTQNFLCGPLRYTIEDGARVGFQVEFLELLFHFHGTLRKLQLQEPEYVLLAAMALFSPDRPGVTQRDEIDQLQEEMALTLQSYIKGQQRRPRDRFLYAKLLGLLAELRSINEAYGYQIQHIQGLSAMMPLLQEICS
- Assay Name: HG5LN GAL4-CAR WT reporter cell line, inhibition of constitutive activity
- Run Conditions: inhibition of constitutive activity, tested alone; NE = No effect
- Source text: To construct GAL4-NR chimeras, individual LBDs of human FXR (R193-Q486), LXRα (A187-E447), LXRβ (G199-E461), CAR (M76-S348), and RORγ (S97-K518) were amplified by PCR with primers containing XhoI and SacI restriction sites (FXR), XhoI and BamHI (LXRs, CAR, RORγ) and inserted in pSG5-GAL4(DBD)-puromycin plasmid. To construct GAL4-CAR (+ APYLT) (M76-S353), the five amino acids APYLT were inserted by overlap extension PCR between amino acids P270 and D271 of CAR. […]
pIC50: −log10 of the molar value.
Value Type: pIC50

Reported pIC50 for Fc1ccc(-c2c3cccc(C(F)(F)F)c3nn2Cc2ccc(F)cc2Cl)cc1 was < 5.00

Lookup result for O=S(=O)(c1ccccc1)N(CC(F)(F)F)c1ccc(C(O)(C(F)(F)F)C(F)(F)F)cc1 ; measured pIC50: 5.33

The reported pIC50 of the molecule Cc1cc(C)c(S(=O)(=O)N(CCc2cccc(Br)c2)Cc2ccc(-c3cccc(S(C)(=O)=O)c3)cc2)c(C)c1 was 5.06

So, Cc1oc2ccccc2c1CNC(=O)NCc1cccs1 ? Its pIC50 was 5.98

Record summary for CC(C)(C)c1nc(-c2cccc(NS(=O)(=O)c3c(F)cccc3F)c2F)c(-c2ccnc(N)n2)s1 : reported pIC50 = < 5.00

What the record says about O=C(Nc1ccc(C(O)(C(F)(F)F)C(F)(F)F)cc1)c1ccccc1Cl : pIC50 is < 5.00

The measured pIC50 associated with OC(c1ccc(-c2ccc(CN3CCN(Cc4ccncc4)CC3)cc2)c(F)c1)(C(F)(F)F)C(F)(F)F reads < 5.00

Measured pIC50 of CCOC(=O)c1ccc(CN(Cc2ccc(-c3cccc(S(C)(=O)=O)c3)cc2)S(=O)(=O)c2c(C)cc(C)cc2C)o1 : < 5.00

###

- Target System: human PXR (Homo sapiens, UniProt O75469)
- Construct: The GAL4-NR chimeric cell lines provide uniform cellular model differing just in receptor LBDs; expressed in transfected cells; host or cells: HG5LN PXR (HeLa-derived; described in Delfosse et al., 2015)
- Sequence (O75469 146-433 limits assumed): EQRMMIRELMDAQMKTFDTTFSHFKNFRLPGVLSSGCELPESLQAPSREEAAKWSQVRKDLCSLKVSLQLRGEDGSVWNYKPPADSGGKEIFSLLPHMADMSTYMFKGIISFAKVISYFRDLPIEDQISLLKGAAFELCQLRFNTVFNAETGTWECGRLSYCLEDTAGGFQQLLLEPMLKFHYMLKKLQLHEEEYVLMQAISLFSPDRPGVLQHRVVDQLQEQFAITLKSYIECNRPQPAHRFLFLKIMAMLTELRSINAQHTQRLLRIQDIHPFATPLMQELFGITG
- Assay Name: HG5LN PXR reporter cell line, agonist mode
- Type: cell-based
- Run Conditions: HG5LN PXR cells, tested alone; NE = No effect; read-out: PXR EC50
Value Type: EC50 (nM)
Number only, in nM; omit the unit.

Form field EC50, entry Cc1cc(C)c(S(=O)(=O)N(CCc2cccc(Br)c2)Cc2ccc(-c3cccc(S(C)(=O)=O)c3)cc2)c(C)c1 [SR9243] : 546

According to the records, this compound CCC(C)N(C)C(=O)c1cc2ccccc2c(-c2ccccc2Cl)n1 (centres unmarked) [PK11195] displays EC50 of 726

// O=C(O)Cc1cccc(OCCCN(Cc2cccc(C(F)(F)F)c2Cl)CC(c2ccccc2)c2ccccc2)c1 [GW3965] : EC50 value = 1260

Reported EC50 of Clc1ccccc1C(c1ccccc1)(c1ccccc1)n1ccnc1 [Clotrimazole, clotrimazole] : 1280

###

Please go through the items and note down their EC50.
- Target System: human LXRβ (Homo sapiens, UniProt P55055)
- Construct: LXRβ (G199-E461); expressed in transfected cells; host or cells: HG5LN (HeLa cells carrying the (GAL4RE)5-βGlob-Luc-SVNeo reporter)
- Sequence (P55055 198-460 limits assumed): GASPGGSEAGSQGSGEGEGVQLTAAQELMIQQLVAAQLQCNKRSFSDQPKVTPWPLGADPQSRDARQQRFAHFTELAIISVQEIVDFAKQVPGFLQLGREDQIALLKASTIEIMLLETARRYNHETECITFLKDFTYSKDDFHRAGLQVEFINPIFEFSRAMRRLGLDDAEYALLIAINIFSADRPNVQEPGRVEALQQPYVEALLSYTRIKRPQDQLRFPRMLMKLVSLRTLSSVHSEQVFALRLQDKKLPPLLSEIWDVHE
- Assay Name: HG5LN GAL4-LXRβ reporter cell line, agonist mode
- Format: cell-based
- Run Conditions: HG5LN GAL4-LXRβ cells, tested alone; NE = No effect; read-out: LXRβ EC50

GET /value?item= Cc1oc2ccccc2c1CNC(=O)NCc1cccs1 &field=EC50 returns > 10 µM

Form: compound = Clc1ccc(-c2nc3sccn3c2/C=N/OCc2ccc(Cl)c(Cl)c2)cc1 ; EC50 = > 10 µM

According to the records, this compound CCOP(=O)(OCC)C(=Cc1cc(C(C)(C)C)c(O)c(C(C)(C)C)c1)P(=O)(OCC)OCC displays EC50 of > 10 µM

###

- Target System: human CAR WT (Homo sapiens)
- Construct: CAR (M76-S348)
- Assay Name: HG5LN GAL4-CAR WT reporter cell line, inhibition of constitutive activity
- Run Conditions: inhibition of constitutive activity, tested alone; NE = No effect
Exercise: for every item that follows, state its recorded IC50.

Summary: COC(=O)/C=C/c1cccc(N(Cc2ccc(-c3ccc(N(C)C)cc3)cc2)C(=O)C2CCCCC2)c1 , human CAR WT (Homo sapiens), IC50 = > 10 µM

// returns IC50 for CCOP(=O)(OCC)C(=Cc1cc(C(C)(C)C)c(O)c(C(C)(C)C)c1)P(=O)(OCC)OCC with human CAR WT (Homo sapiens); value = > 10 µM

human CAR WT (Homo sapiens) data for O=C(Nc1ccc(C(O)(C(F)(F)F)C(F)(F)F)cc1)c1ccc(C(F)(F)F)cc1 ; its IC50: > 10 µM

Field IC50 (human CAR WT (Homo sapiens)), entry CC(C)c1onc(-c2c(Cl)cccc2Cl)c1COc1ccc(/C=C/c2cccc(C(=O)O)c2)c(Cl)c1 : > 10 µM

Tested on human CAR WT (Homo sapiens), the item CC(=O)Nc1nc(C)c(S(=O)(=O)Nc2ccc(C(O)(C(F)(F)F)C(F)(F)F)cc2)s1 showed IC50 equal to > 10 µM

Observed IC50 on human CAR WT (Homo sapiens), entry CCOC(=O)Nc1ccc2c(c1)N(C(=O)CN(CC)CC)c1ccccc1CC2 , equals 0.251 µM

Tested on human CAR WT (Homo sapiens), the item Cc1cc(C)c(S(=O)(=O)N(Cc2ccc(-c3cccc(S(C)(=O)=O)c3)cc2)Cc2ccc(C(F)(F)F)o2)c(C)c1 showed IC50 equal to 0.556 µM

Case COc1cccc(Cn2cc(C(=O)Nc3ccc(C)c(S(=O)(=O)N4CCOCC4)c3)c(-c3ccc(C)cc3)n2)c1 , human CAR WT (Homo sapiens), IC50 recorded as > 10 µM

The compound O=C(O)Cc1cccc(OCCCN(Cc2cccc(C(F)(F)F)c2Cl)CC(c2ccccc2)c2ccccc2)c1 on human CAR WT (Homo sapiens): IC50 was > 10 µM
